tested on: BJ; assay: cells; format: functional, cell-based; settings: Homo sapiens
The source made the active and inactive calls. Rule as the data show it: actives have a measured EC50 and inactives only a lower limit.
endpoint: EC50

The recorded EC50 for Cc1nn(-c2ccccc2)c(Cl)c1CN(C(=O)CCl)c1ccc(Cl)cc1 is 2.82 µM (inconclusive)

The recorded EC50 for O=C1c2cccc3cc([N+](=O)[O-])cc(c23)C(=O)N1CCN1CCCC1 [PINAFIDE] is 9.59 µM (active)

The recorded EC50 for Cc1nc(N)nc(N)c1/C=C/C(C)(C)c1ccc(Cl)cc1 is < 0.12 µM (active)

The recorded EC50 for O=c1[nH]c(=O)n([C@H]2C[C@H](O)[C@@H](CO)O2)cc1F is 0.596 µM (active)

###

Target: Protein RecA (Mycobacterium tuberculosis, UniProt P9WHJ3)
Sequence (P9WHJ3 whole entry): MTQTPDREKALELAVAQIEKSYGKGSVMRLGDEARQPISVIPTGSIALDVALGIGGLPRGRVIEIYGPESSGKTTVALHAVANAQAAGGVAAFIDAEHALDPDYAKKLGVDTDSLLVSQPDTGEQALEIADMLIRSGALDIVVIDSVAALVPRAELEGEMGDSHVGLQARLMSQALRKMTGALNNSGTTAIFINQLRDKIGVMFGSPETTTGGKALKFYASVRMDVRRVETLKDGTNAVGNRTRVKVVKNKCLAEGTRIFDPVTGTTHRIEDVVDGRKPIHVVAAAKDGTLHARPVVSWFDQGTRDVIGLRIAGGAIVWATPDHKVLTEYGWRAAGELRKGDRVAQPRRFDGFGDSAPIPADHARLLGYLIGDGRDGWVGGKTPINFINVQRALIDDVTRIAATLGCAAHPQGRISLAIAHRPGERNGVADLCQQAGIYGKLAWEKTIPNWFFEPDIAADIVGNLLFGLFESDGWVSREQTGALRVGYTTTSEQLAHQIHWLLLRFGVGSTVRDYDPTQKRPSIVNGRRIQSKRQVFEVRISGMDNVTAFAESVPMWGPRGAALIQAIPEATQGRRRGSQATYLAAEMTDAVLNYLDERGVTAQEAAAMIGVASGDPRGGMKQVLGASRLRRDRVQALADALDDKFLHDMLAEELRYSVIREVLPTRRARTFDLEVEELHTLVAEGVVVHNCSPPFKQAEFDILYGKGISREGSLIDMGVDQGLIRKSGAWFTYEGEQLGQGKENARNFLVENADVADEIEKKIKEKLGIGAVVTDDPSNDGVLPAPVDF
Test: Fluorescence Cell-Free Homogeneous Dose Retest to Identify Inhibitors of RecA-Intein Splicing Activity. [Related pubchem assays (depositor defined):AID2097, AID2223, AID489010, AID492950]
Assay type: functional
The source made the active and inactive calls. Cut-off read from the data, not from the text of the source: actives have a measured EC50 and inactives only a lower limit.
Exercise: state measured EC50 for each of the compounds provided.

Reported Protein RecA (Mycobacterium tuberculosis, UniProt P9WHJ3) EC50 for item O=C(O)CSc1cc(NS(=O)(=O)c2ccc(Cl)cc2)c2ccccc2c1O was 2.39 µM (active)

Reported Protein RecA (Mycobacterium tuberculosis, UniProt P9WHJ3) EC50 for item CCOC(=O)Cc1n[nH]c2c1C(c1ccoc1)C(C#N)=C(N)O2 (stereo unspecified) was 3.42 µM (active)

Reported Protein RecA (Mycobacterium tuberculosis, UniProt P9WHJ3) EC50 for item COc1ccccc1N1C(=O)Cc2ccccc2C1=O was 9.77 µM (active)

Reported Protein RecA (Mycobacterium tuberculosis, UniProt P9WHJ3) EC50 for item Cc1cc(-c2[nH]nc3c2C(c2ccc(Cl)cc2)C(C#N)=C(N)O3)c(C)s1 (stereo unspecified) was 3.42 µM (active)

Reported Protein RecA (Mycobacterium tuberculosis, UniProt P9WHJ3) EC50 for item O=C1C(Br)=Cc2cccc3cccc1c23 was 0.581 µM (active)

Reported Protein RecA (Mycobacterium tuberculosis, UniProt P9WHJ3) EC50 for item CC(C)(C)c1ccc(/C=C(\c2nc3ccccc3[nH]2)S(=O)(=O)c2ccccc2)cc1 was 2.77 µM (active)

Reported Protein RecA (Mycobacterium tuberculosis, UniProt P9WHJ3) EC50 for item CNCC(O)CN(c1ccccc1)c1ccccc1 (stereo unspecified) was 10.8 µM (active)

Reported Protein RecA (Mycobacterium tuberculosis, UniProt P9WHJ3) EC50 for item CCOc1ccccc1N1CCN(C(=O)c2ccc(-c3ccc(OC(C)=O)cc3)cc2)CC1 was 58.4 µM (active)

Reported Protein RecA (Mycobacterium tuberculosis, UniProt P9WHJ3) EC50 for item CC(C)c1ccc(/C=C(\c2nc3ccccc3[nH]2)S(=O)(=O)c2ccccc2)cc1 was 2.01 µM (active)

Reported Protein RecA (Mycobacterium tuberculosis, UniProt P9WHJ3) EC50 for item O=C(c1ccc(Cl)cc1)n1cnc2ccccc21 was 8.13 µM (active)

Reported Protein RecA (Mycobacterium tuberculosis, UniProt P9WHJ3) EC50 for item CCN(CC)c1ccc2oc(=O)c(C)nc2c1 was 7.63 µM (active)
